Tested on: SEM cells
assay.procedure: cell viability relative to DMSO control; higher = less cytotoxic
condition.summary: HPLM + 10% dialyzed FBS; 48 h; 0.569 µM
I'd be grateful if you could share measured cell viability for these entries.
Response body: numeric value in %, unit text excluded.

Req: Report cell viability for NC(=O)[C@@H](CCC(F)(F)F)N(Cc1ccc(-c2ncon2)cc1F)[S+](=O)([O-])c1ccc(Cl)cc1 please.
Resp: 81.4

Req: Consider next the compound CC(C)C[C@@H](C(=O)N[C@H](C(=O)OC1CCCC1)c1ccccc1)[C@H](O)C(=O)NO in the same way.
Resp: 117

Req: Consider next the compound O=C(O)c1nn(Cc2ccc(Cl)cc2Cl)c2ccccc12 in the same way.
Resp: 68.7

Req: Consider next the compound CC[C@@H](C)[C@H](NC(=O)[C@H](CC1CCCCC1)NC(=O)c1ccno1)C(=O)N1CCC2(CCc3ccccc32)CC1 in the same way.
Resp: 83.7

Req: Consider next the compound COc1ccccc1OCC(O)CN1CCN(CC(=O)Nc2c(C)cccc2C)CC1 (stereo unspecified) in the same way.
Resp: 111

Req: Consider next the compound N[C@@H](Cc1cc(I)c(Oc2cc(I)c(O)c(I)c2)c(I)c1)C(=O)O in the same way.
Resp: 119

Req: Consider next the compound C\C1=N\N(C(=O)C1)C2=CC=CC=C2 in the same way.
Resp: 112

Req: Consider next the compound COc1cc([C@@H]2c3cc4c(cc3[C@@H](O[C@@H]3O[C@@H]5CO[C@@H](C)O[C@H]5[C@H](O)[C@H]3O)[C@H]3COC(=O)[C@H]23)OCO4)cc(OC)c1O in the same way.
Resp: 49.2

Req: Consider next the compound NC/1=N/C(=O)C2=C([NH]C=C2CCC3=CC=C(C=C3)C(=O)N[C@@H](CCC(O)=O)C(O)=O)N1 in the same way.
Resp: 80.2

Req: Consider next the compound COc1cc([C@@H]2c3cc4c(cc3[C@@H](O)C3COC(=O)C32)OCO4)cc(OC)c1O (stereo partly specified) in the same way.
Resp: 22.2

Req: Consider next the compound COC1=CC(=C2C(=O)N(COC/3=C/C(=O)N4\C=C/C=C(OCCN5CCCCC5)\C4=N3)[S+]([O-])(=O)C2=C1)C(C)C in the same way.
Resp: 108

Req: Consider next the compound C=C1C(=O)O[C@@H]2[C@H]3O[C@]3(C)CC/C=C(\C)CC[C@@H]12 in the same way.
Resp: 98.5

Req: Consider next the compound CCOC(=O)c1c(/C(C#N)=C\N)c2ccc(Cl)c(Cl)c2n1C in the same way.
Resp: 95.5

Req: Consider next the compound C=CC[N+]1([C@H]2C[C@H]3[C@@H]4CC[C@H]5C[C@H](O)[C@@H](N6CCOCC6)C[C@]5(C)[C@H]4CC[C@]3(C)[C@H]2OC(C)=O)CCCC1 in the same way.
Resp: 124

Req: Consider next the compound CC(C)N(CCCNC(=O)Nc1ccc(C(C)(C)C)cc1)C[C@H]1O[C@@H](n2cc(Br)c3c(N)ncnc32)[C@H](O)[C@@H]1O in the same way.
Resp: 85.1

Req: Consider next the compound CNCCN(C)Cc1c[nH]nc1-c1ccc(O[C@H]2C[C@H](OCCC3CCOCC3)C2)cc1 in the same way.
Resp: 116
